# TARGET OR TEST SYSTEM: T1, human α-CGRP (Homo sapiens, UniProt P06881)
# T1 construct: 1-37 (WT); purchased GenScript Corporation or Global Peptide Services
# T1 sequence (P06881 83-119 limits assumed): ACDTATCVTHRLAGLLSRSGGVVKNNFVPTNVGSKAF
# ASSAY PROTOCOL: Biacore SPR affinity of Fab fragments to N-biotinylated human α-CGRP on SA chip
# Assay type: binding
# CONDITIONS USED: 37° C., screening mode except underlined values

{"MOLECULE": "M65: G1 variant; L1 R28N T30G; L2 G50A L56I; H2 E54K A57C; HC-FW3 L99T A100V (antibody, V domains shown) VH: EVQLVESGGGLVQPGGSLRLSCAASGFTFSNYWISWVRQAPGKGLEWVAEIRSKSDCSATHYAEAVKGRFTISRDNAKNSLYLQMNSLRAEDTAVYYCTVYFDYGLAIQNYWGQGTLVTVSS VL: EIVLTQSPATLSLSPGERATLSCKASKNVGTYVSWYQQKPGQAPRLLIYAASNRYIGIPARFSGSGSGTDFTLTISSLEPEDFAVYYCSQSYNYPYTFGQGTKLEIK", "UNIT NAME": "s⁻¹", "α-human koff": 0.000803}
